meta.source: patent US20180320179A1

- Tested on: Zymoseptoria tritici (SEPTTR-184)
- PROTOCOL_NOTES: Cyp51 dsRNA tile (fragment) foliar application bioassay (Example 6)
- Type: in vivo
- ASSAY_CONDITIONS: 1 day protectant; rate 3.125 ppm; average of 2 trials
- Procedure: The 200 ppm concentration for each treatment was prepared by adding the calculated volume of the corresponding dsRNA solution in TE buffer. […] A non-target dsRNA control (YFP), a TE/phosphate buffer control, disease pressure control, and clean plant control were included. These plants were inoculated with an aqueous spore suspension of Zymoseptoria tritici either prior to or after fungicidal treatments. […]
EXPERIMENTAL_ENDPOINT: Disease Control (%) SEPTTR-184 1DP
Answers are plain numbers, in %.

MOLECULE	RESULT_NUMBER
MgCyp51-T5: dsRNA tile of Zymoseptoria tritici Cyp51, 133 bp, location 1316-1448 (nucleic acid, listed as Zymoseptoria tritici) AATACAAGCACCTGTCCCCGACGACTGCCCTAGGAAGCATCGCCGAGGAGAAAGAAGACTATGGCTACGGCCTGGTAAGCAAGGGCGCGGCGTCGCCATACTTACCCTTTGGTGCGGGACGACACAGATGTAT	61
MgCyp51-T1: dsRNA tile of Zymoseptoria tritici Cyp51, 232 bp, location 166-397 (nucleic acid, listed as Zymoseptoria tritici) GTATTCCACTGGGTGCCCTTCATCGGAAGCACCATCACATACGGCATCGACCCATACAAGTTCTTCTTCTCCTGTCGGGAAAAGTATGGAGATGTCTTTACATTCATCCTGCTGGGAAAGAAGACGACGGTGTGCTTGGGCACCAAGGGCAATGATTTTATTTTGAATGGAAAACTGAAGGACGTCAACGCGGAGGAGATATACAGCCCGCTGACCACTCCTGTCTTTGGCA	65
MgCyp51-T10: dsRNA tile of Zymoseptoria tritici Cyp51, 172 bp, location 345-516 (nucleic acid, listed as Zymoseptoria tritici) GGACGTCAACGCGGAGGAGATATACAGCCCGCTGACCACTCCTGTCTTTGGCAAGGATGTGGTTTATGATTGTCCCAATTCGAAGCTCATGGAGCAGAAGAAGTTCGTCAAGTACGGCCTCACAACCTCTGCCCTCCAGTCCTACGTGACCTTGATCGCCGCCGAGACCCGC	58
MgCyp51-T4: dsRNA tile of Zymoseptoria tritici Cyp51, 178 bp, location 647-824 (nucleic acid, listed as Zymoseptoria tritici) AGGGCTTCGACTCGTCTTTCGCGGACCTCTACCACTACCTCGATATGGGATTCACACCGATCAACTTTATGCTTCCGTGGGCGCCCCTTCCCCAGAACCGACGCCGCGATTATGCGCAGAAGAAGATGTCCGAGACATACATGTCGATCATTCAGAAGAGACGAGAGTCCAAAACGGG	53

Give the reported value of Disease Control (%) SEPTTR-184 1DP for this record: YFP: non-target dsRNA control (YFP, yellow fluorescent protein coding region) (nucleic acid, double-stranded RNA; synthesized partial coding region) TGTAGAAATCCTTCAGCTCGGGGCCGTACTTGGCGAAGCACTGGGCGCCGTAGGTCAGGGTGGTCACCAGGGTGCTCCAGGGCACGGGCACATCGCCGGTGGTGCAGATGAACTGGGCATCCACCTTGCCCACGCTGGCATCGCCGTAGCCCTTGCCGCGGATGCTGAAGGTGTGGCCATCCACATTGCCCTCCATCTCCACCACGTAGGGGATCTTGCCGTGGAACAGCAGGGCGCCGCTGGAGCCCAT
0
